B1: FUT8 (parent)
chain: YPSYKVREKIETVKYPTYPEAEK

# Variants of: B1
# experiment.summary: protein stability index of a GFP-peptide fusion (GPS, HEK-293T) (PSI 1-6); higher = more stable;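 note: lentivirally expressed fusions sorted by FACS into six bins by GFP to DsRed ratio, PSI derived from sequencing read proportions per bin multiplied by bin number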
# measurement.context: c terminus: native
protein stability index by entry:
recorded.endpoint: protein stability index

A21S; 4.1
T17G; 4.02
V13S; 4.69
E22I; 2.17
A21T; 3.67
K9E; 4.5
K5G; 4.29
T12S; 3.91
Y1S; 4.96
K5Q; 4.68
V6M; 3.86
T17K; 4.69
S3G; 3.92
K14G; 4.98
V13P; 4.24
P16K; 4.19
T12W; 3.21
T12F; 3.06
Y4G; 5.38
V13Q; 4.49
K14N; 4.62
S3H; 4.39
Y15V; 4.18
I10R; 4.56
I10L; 4.28
E22L; 1.97
E20A; 3.93
T17M; 3.77
P16H; 4.06
E20L; 3.5
Y15D; 5.2
P16N; 4.12
E22C; 1.66
R7P; 4.67
Y4P; 5.02
E20C; 3.33
V6C; 3.91
K5S; 4.54
K14M; 3.85
E11H; 3.8
P2W; 3.32
T12Y; 4.15
R7E; 4.7
E8K; 3.59
P19R; 3.71
K14H; 3.95
V6Y; 4.15
E22V; 1.9
Y4A; 4.86
S3A; 4.02
T17I; 3.7
V6N; 4.62
E11K; 4.32
K9T; 4.44
T12A; 3.92
I10Q; 4.17
P19D; 3.66
E20Y; 3.52
E11A; 4.3
R7M; 4.48
Y18L; 3.87
A21H; 4.56
K5C; 4.2
Y15I; 4.58
A21N; 3.45
V13E; 4.79
K23V; 3.4
I10S; 4.46
K23I; 4.41
S3T; 4.19
P16M; 4
T17D; 3.7
Y18K; 2.85
V6E; 4.43
K23M; 2.94
R7F; 2.52
Y18F; 3.89
T17Q; 4.3
Y4L; 4.68
Y1Q; 4.96
E22Y; 2.93
Y15F; 4.49
P2V; 2.75
E8Q; 4.01
K23T; 3.36
K9P; 4.74
E20F; 3.39
V13F; 3.77
V6P; 4.62
K9A; 4.31
Y1C; 4.41
